The values you see were collected from patent US9108947B2.

# target: hROMK (hKir1.1) (Homo sapiens (Human), UniProt P48048)
# Sequence (P48048 whole entry): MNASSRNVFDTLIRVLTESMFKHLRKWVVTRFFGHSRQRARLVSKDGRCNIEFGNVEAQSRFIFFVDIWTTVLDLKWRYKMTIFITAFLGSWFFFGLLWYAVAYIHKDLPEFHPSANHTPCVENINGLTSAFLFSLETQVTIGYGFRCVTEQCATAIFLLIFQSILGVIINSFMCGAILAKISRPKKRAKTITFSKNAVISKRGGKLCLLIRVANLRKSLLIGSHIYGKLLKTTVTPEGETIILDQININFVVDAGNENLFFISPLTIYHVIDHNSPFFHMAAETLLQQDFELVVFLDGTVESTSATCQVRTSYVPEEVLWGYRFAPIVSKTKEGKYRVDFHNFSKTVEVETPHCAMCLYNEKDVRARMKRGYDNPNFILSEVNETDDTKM
# testDetails: Thallium Flux Assay (ROMK channel functional thallium flux, FLIPR-Tetra)
# Format: cell-based
# conditionSummary: HEK293 cells stably expressing hROMK (hKir1.1); 30 min compound incubation
Record form. Attribute: pIC50. Fill in for each entry.
Entry type: numeric. Quantity: pIC50, the -log10 of concentration in molar units.

Prompt: Given the compound Cc1c([C@@H](O)CNCC2(C)CCCN(C[C@H](O)c3ccc4c(c3C)COC4=O)C2)ccc2c1COC2=O (some centres unmarked) , what is its reported pIC50?
Response: 6.07

Prompt: # input compound: Cc1c(C(O)CN2CC[C@@H](NC[C@H](O)c3ccc4c(c3C)COC4=O)C2)ccc2c1COC2=O (stereo in doubt) ; wanted: its pIC50
Response: 6.38

Prompt: # get_value(readout='pIC50', item= Cc1c([C@@H](O)CNCC2CCCN2C[C@H](O)c2ccc3c(c2C)COC3=O)ccc2c1COC2=O (some centres unmarked) )
Response: 6.75

Prompt: Return reported pIC50; argument: Cc1c([C@@H](O)CNC2C[C@H]3C[C@@H]2N(C[C@H](O)c2ccc4c(c2C)COC4=O)C3)ccc2c1COC2=O (single isomer, unassigned) [Example 17A]
Response: 6.30

Prompt: Could you tell me which pIC50 is on file for Cc1c([C@@H](O)CN2CCC(CNc3nccn4cnnc34)(c3ccccc3)C2)ccc2c1COC2=O (some centres unmarked) ?
Response: 6.05

Prompt: Entry under review: Cc1c([C@@H](O)CN2CCC(CNc3ccc(C#N)cn3)(c3ccccc3)C2)ccc2c1COC2=O (some centres unmarked) . Reported pIC50?
Response: 6.09

Prompt: Suppose we examine the compound Cc1c([C@@H](O)CNCC2(C)CCN(C[C@H](O)c3ccc4c(c3C)COC4=O)C2)ccc2c1COC2=O (some centres unmarked) ; what pIC50 value has been reported?
Response: 6.56

Prompt: Record request: pIC50 value, item Cc1c(C(CO)NCC2CCCN2C[C@H](O)c2ccc3c(c2C)COC3=O)ccc2c1COC2=O (some centres unmarked)
Response: 6.28

Prompt: Record request: pIC50 value, item Cc1c([C@@H](O)CN2CC[C@@H](NCC(O)c3ccc(C#N)cn3)C2)ccc2c1COC2=O (some centres unmarked)
Response: 6.30

Prompt: For Cc1c([C@@H](O)CN2CCC(C)(CNc3ccc(C#N)cn3)C2)ccc2c1COC2=O (some centres unmarked) , what is its reported pIC50?
Response: 6.26

Prompt: May I ask what pIC50 has been recorded for Cc1c([C@@H](O)CN[C@@H]2CCN(CC(O)c3ccc(C#N)cn3)C2)ccc2c1COC2=O (some centres unmarked) ?
Response: 6.27

Prompt: Consider the compound Cc1c([C@@H](O)CNC2C[C@H]3C[C@@H]2N(C[C@H](O)c2ccc4c(c2C)COC4=O)C3)ccc2c1COC2=O (single isomer, unassigned) [Example 17B] and give its measured pIC50.
Response: 6.24

Prompt: For Cc1c([C@@H](O)CN2CCCC2CNCC(O)c2ccc(C#N)cn2)ccc2c1COC2=O (single isomer, unassigned) [Example 9B] , what is its reported pIC50?
Response: 6.54

Prompt: For Cc1c([C@@H](O)CN2CCCC2CNS(=O)(=O)c2ccc(-n3cnnn3)cc2)ccc2c1COC2=O (some centres unmarked) , what is its reported pIC50?
Response: 6.69

Prompt: Data request, read-out pIC50, for Cc1c([C@@H](O)CN2CC(CNS(=O)(=O)Cc3ccc(C#N)cc3)C2)ccc2c1COC2=O
Response: 5.98

Prompt: Entry under review: Cc1c([C@@H](O)CN2CCCC2CNCC(O)c2ccc(C#N)cn2)ccc2c1COC2=O (single isomer, unassigned) [Example 9A] . Reported pIC50?
Response: 6.73

Prompt: Field request: pIC50 | item: Cc1c([C@@H](O)CN2CCC(C3(Nc4nccn5cnnc45)CCC3)C2)ccc2c1COC2=O (some centres unmarked)
Response: 6.40

Prompt: Consider the compound Cc1c([C@@H](O)CNC2(C3CCN(C[C@H](O)c4ccc5c(c4C)COC5=O)C3)CCC2)ccc2c1COC2=O (some centres unmarked) and give its measured pIC50.
Response: 6.76

Prompt: Name the recorded pIC50 for Cc1c([C@@H](O)CNCC2CCCCN2C[C@H](O)c2ccc3c(c2C)COC3=O)ccc2c1COC2=O (some centres unmarked) .
Response: 7.09

Prompt: Data request, read-out pIC50, for Cc1c([C@@H](O)CN2CC(CNS(=O)(=O)c3ccc(C#N)cc3)C2)ccc2c1COC2=O
Response: 6.91

Prompt: // query pIC50 value for entry Cc1c(C(CO)NCC2CCCCN2C[C@H](O)c2ccc3c(c2C)COC3=O)ccc2c1COC2=O (some centres unmarked)
Response: 6.84

Prompt: State the recorded pIC50 for this entry: Cc1c([C@@H](O)CN2CC[C@H](NCC(O)c3ccc(C#N)cn3)C2)ccc2c1COC2=O (some centres unmarked)
Response: 6.19

Prompt: May I ask what pIC50 has been recorded for Cc1c([C@@H](O)CNC2CCCN(c3ccc(C#N)cn3)C2)ccc2c1COC2=O (some centres unmarked) ?
Response: 6.58

Prompt: Report pIC50 for Cc1c([C@@H](O)CN2CC[C@@H](NS(=O)(=O)c3ccc(C#N)cc3)C2)ccc2c1COC2=O please.
Response: 6.19

Prompt: Entry Cc1c([C@@H](O)CN2CCCCC2CNCC(O)c2ccc(C#N)cn2)ccc2c1COC2=O (some centres unmarked) has what pIC50?
Response: 6.79

Prompt: What does the data say about its pIC50? Entry: Cc1c([C@@H](O)CN2CCCC2CNc2ccc(C#N)cn2)ccc2c1COC2=O (some centres unmarked)
Response: 6.27
